Condition: female, LGV Golden Syrian, hamster, in vivo
Reported Metric: VC/F, central volume of distribution, population estimate (%RSE)

1) NC(=O)c1nc(F)c[nH]c1=O	11.7 (14.7) mL
2) CC(=O)Oc1ccccc1C(=O)Nc1ncc([N+](=O)[O-])s1 [Nitazoxanide, nitazoxanide]	188 (38.6) mL
3) CCNCc1cc(Nc2ccnc3cc(Cl)ccc23)ccc1O	1890 (42.2%) mL
4) CC(C)C(=O)OC[C@H]1O[C@@H](n2ccc(NO)nc2=O)[C@H](O)[C@@H]1O	172 (21.6) mL
5) COc1ccc2cc1Oc1ccc(cc1)C[C@H]1c3c(cc4c(c3Oc3cc5c(cc3OC)CCN(C)[C@@H]5C2)OCO4)CCN1C	66400 (12.5) mL
6) CC(C)/N=c1\cc2n(-c3ccc(Cl)cc3)c3ccccc3nc-2cc1Nc1ccc(Cl)cc1	356 (11.9) mL

----------
Protocol Text: Binding to antiviral assay medium by Rapid Equilibrium Dialysis
Condition: bovine, antiviral assay medium (DMEM with 2% v/v FCS)
Structures can show the parent of a compound that is named as a salt.
The entries below come with measured fraction unbound values attached.
Reported Metric: fraction unbound

1. Cc1c(O)cccc1C(=O)N[C@@H](CSc1ccccc1)[C@H](O)CN1C[C@H]2CCCC[C@H]2C[C@H]1C(=O)NC(C)(C)C	0.243
2. Nc1c(Br)cc(Br)cc1CN[C@H]1CC[C@H](O)CC1	0.954
3. CNCCC(Oc1ccc(C(F)(F)F)cc1)c1ccccc1 (stereo not drawn)	0.682
4. COCCCC/C(=N\OCCN)c1ccc(C(F)(F)F)cc1 [Fluvoxamine maleate, fluvoxamine maleate]	0.771
5. CCN(CC)Cc1cc(Nc2ccnc3cc(Cl)ccc23)ccc1O	0.878
6. COC(=O)N[C@H](C(=O)N[C@@H](Cc1ccccc1)[C@@H](O)CN(Cc1ccc(-c2ccccn2)cc1)NC(=O)[C@@H](NC(=O)OC)C(C)(C)C)C(C)(C)C	0.348

----------
System: SARS-CoV-2 in Vero cells
Reported Metric: Toxicity observed (^T), Vero Cells

1) COc1ccc2cc1Oc1ccc(cc1)C[C@H]1c3c(cc4c(c3Oc3cc5c(cc3OC)CCN(C)[C@@H]5C2)OCO4)CCN1C	Yes ^T
2) Cc1c(O)cccc1C(=O)N[C@@H](CSc1ccccc1)[C@H](O)CN1C[C@H]2CCCC[C@H]2C[C@H]1C(=O)NC(C)(C)C	Yes ^T
3) CNCCC(Oc1ccc(C(F)(F)F)cc1)c1ccccc1 (stereo not shown)	Yes ^T
4) CC(C)/N=c1\cc2n(-c3ccc(Cl)cc3)c3ccccc3nc-2cc1Nc1ccc(Cl)cc1	Yes ^T

----------
Protocol Text: Plasma protein binding, hamster
Condition: hamster, plasma
Reported Metric: fraction unbound

1) Nc1c(Br)cc(Br)cc1CN[C@H]1CC[C@H](O)CC1	0.125
2) COC(=O)N[C@H](C(=O)N1CCC[C@H]1c1nc(-c2ccc(-c3ccc(-c4c[nH]c([C@@H]5CCCN5C(=O)[C@@H](NC(=O)OC)C(C)C)n4)cc3)cc2)c[nH]1)C(C)C	0.055
3) CC(C)(C)[C@H](NC(=O)C(F)(F)F)C(=O)N1C[C@H]2[C@@H]([C@H]1C(=O)N[C@H](C#N)C[C@@H]1CCNC1=O)C2(C)C	0.621

----------
Tested on: SARS-CoV-2 in Calu-3 cells
Protocol Text: microbe, parasite or virus in culture
Condition: Severe acute respiratory syndrome coronavirus 2, Calu-3, read-out: EC50 or IC50, Calu-3 Cells (borderline)
pIC50: −log10 of the molar value.
Reported Metric: pIC50

1) Cc1c(O)cccc1C(=O)N[C@@H](CSc1ccccc1)[C@H](O)CN1C[C@H]2CCCC[C@H]2C[C@H]1C(=O)NC(C)(C)C	4.89

----------
Protocol Text: in vitro
Condition: African green monkey, Selectivity Index (Vero cells), Without Pgp pump inhibitor
Entries and their selectivity ratio values follow.
Reported Metric: selectivity ratio

1) CC(C)/N=c1\cc2n(-c3ccc(Cl)cc3)c3ccccc3nc-2cc1Nc1ccc(Cl)cc1	8.4
2) COC(=O)N[C@H](C(=O)N[C@@H](Cc1ccccc1)[C@@H](O)CN(Cc1ccc(-c2ccccn2)cc1)NC(=O)[C@@H](NC(=O)OC)C(C)(C)C)C(C)(C)C	> 2.2
3) CC(=O)Oc1ccccc1C(=O)Nc1ncc([N+](=O)[O-])s1 [Nitazoxanide, nitazoxanide]	> 7.9
4) CCN(CC)Cc1cc(Nc2ccnc3cc(Cl)ccc23)ccc1O	> 5.7
5) COc1ccc2cc1Oc1ccc(cc1)C[C@H]1c3c(cc4c(c3Oc3cc5c(cc3OC)CCN(C)[C@@H]5C2)OCO4)CCN1C	9.7
6) Cc1c(O)cccc1C(=O)N[C@@H](CSc1ccccc1)[C@H](O)CN1C[C@H]2CCCC[C@H]2C[C@H]1C(=O)NC(C)(C)C	> 9
7) OC(c1cc(C(F)(F)F)nc2c(C(F)(F)F)cccc12)C1CCCCN1 (stereo not shown)	3.6

----------
Protocol Text: Population PK model from satellite PK studies in hamster
Condition: hamster of the study's median weight (80-131 g)
Structures can show the parent of a compound that is named as a salt.
Reported Metric: VC/F, central volume of distribution, population estimate (%RSE)

1) Nc1c(Br)cc(Br)cc1CN[C@H]1CC[C@H](O)CC1	12000 (10.9%) mL
2) COCCCC/C(=N\OCCN)c1ccc(C(F)(F)F)cc1 [Fluvoxamine maleate, fluvoxamine maleate]	16500 (12.8) mL
3) NCCC(Oc1ccc(C(F)(F)F)cc1)c1ccccc1 (stereo not shown)	2740 (5.7) mL
4) COC(=O)N[C@H](C(=O)N1CCC[C@H]1c1nc(-c2ccc(-c3ccc(-c4c[nH]c([C@@H]5CCCN5C(=O)[C@@H](NC(=O)OC)C(C)C)n4)cc3)cc2)c[nH]1)C(C)C	86.3 (27.0) mL
5) CNCCC(Oc1ccc(C(F)(F)F)cc1)c1ccccc1 (stereo not shown)	3530 (6.5) mL
6) Cc1c(O)cccc1C(=O)N[C@@H](CSc1ccccc1)[C@H](O)CN1C[C@H]2CCCC[C@H]2C[C@H]1C(=O)NC(C)(C)C	547 (15.3) mL
7) CC(C)OC(=O)[C@H](C)N[P@](=O)(OC[C@H]1O[C@@H](n2ccc(=O)[nH]c2=O)[C@](C)(F)[C@@H]1O)Oc1ccccc1	46600 (29.9) mL
8) C[C@@]1(F)[C@H](O)[C@@H](CO)O[C@H]1n1ccc(=O)[nH]c1=O	2750 (17.0) mL
9) C[C@@]1(F)[C@H](O)[C@@H](CO)O[C@H]1n1cnc2c(=O)[nH]c(N)nc21	49200 (13.2) mL
10) CCN(CC)Cc1cc(Nc2ccnc3cc(Cl)ccc23)ccc1O	158 (15.3%) mL

----------
Protocol Text: Population PK model in human (digitized literature data)
Condition: human; modelled from digitized data; ref 68 (ambroxol), 71-73 (cepharanthine), 78 (fluvoxamine), 80 (molnupiravir)
Counter-ions that a name gives are not always drawn.
Reported Metric: CL/F, population estimate (%RSE)

1. CC(C)C(=O)OC[C@H]1O[C@@H](n2ccc(NO)nc2=O)[C@H](O)[C@@H]1O	80.9 (3.9%) L/h
2. COCCCC/C(=N\OCCN)c1ccc(C(F)(F)F)cc1 [Fluvoxamine maleate, fluvoxamine maleate]	0.148 (3.0) L/h
3. COc1ccc2cc1Oc1ccc(cc1)C[C@H]1c3c(cc4c(c3Oc3cc5c(cc3OC)CCN(C)[C@@H]5C2)OCO4)CCN1C	74.4 (5.5%) L/h
4. Nc1c(Br)cc(Br)cc1CN[C@H]1CC[C@H](O)CC1	41.4 (3.0%) L/h

----------
Condition: female, LGV Golden Syrian, hamster, in vivo
Listing of recorded CL/F, elimination clearance, population estimate (%RSE) by entry.
Reported Metric: CL/F, elimination clearance, population estimate (%RSE)

1. CCNCc1cc(Nc2ccnc3cc(Cl)ccc23)ccc1O [N-desethylamodiaquine]	804 (9.48%) mL/h
2. NC(=O)c1nc(F)c[nH]c1=O [Favipiravir, favipiravir]	58.2 (6.06) mL/h
3. CC(C)C(=O)OC[C@H]1O[C@@H](n2ccc(NO)nc2=O)[C@H](O)[C@@H]1O [Molnupiravir, molnupiravir]	1340 (7.6) mL/h
4. CC(C)/N=c1\cc2n(-c3ccc(Cl)cc3)c3ccccc3nc-2cc1Nc1ccc(Cl)cc1 [Clofazimine, clofazimine]	49.4 (7.2) mL/h
5. COc1ccc2cc1Oc1ccc(cc1)C[C@H]1c3c(cc4c(c3Oc3cc5c(cc3OC)CCN(C)[C@@H]5C2)OCO4)CCN1C [Cepharanthine, cepharanthine]	804 (25.0) mL/h
6. CC(=O)Oc1ccccc1C(=O)Nc1ncc([N+](=O)[O-])s1 [Nitazoxanide, nitazoxanide]	626 (11.9) mL/h

----------
Protocol Text: in vitro
Condition: African green monkey, Selectivity Index (Vero cells), With Pgp pump inhibitor
Reported Metric: selectivity ratio

1) Cc1c(O)cccc1C(=O)N[C@@H](CSc1ccccc1)[C@H](O)CN1C[C@H]2CCCC[C@H]2C[C@H]1C(=O)NC(C)(C)C [Nelfinavir, nelfinavir]	> 32
2) CC(=O)Oc1ccccc1C(=O)Nc1ncc([N+](=O)[O-])s1 [Nitazoxanide, nitazoxanide]	> 14.7
3) CCN(CC)Cc1cc(Nc2ccnc3cc(Cl)ccc23)ccc1O [Amodiaquine, amodiaquine]	> 19

Ref: paper PMC9460261
